# System: UACC-62 melanoma
# procedure text: NCI tumour cell line growth inhibition, 48 h
Answer Not satisfied if TGI is under 20 µM, and Satisfied if it is 20 µM or more.

Use the examples below as a reference point.
1. CCOC(=O)C(=O)Nc1ccc(C)cc1C | Satisfied
2. O=P(Oc1ccccc1)(Oc1ccccc1)Oc1c[nH]c2ccccc12 | Satisfied
3. NC(N)=NS(=O)(=O)c1ccc(NCc2c3ccccc3nc3ccccc23)cc1 | Satisfied
4. COc1ccc(Nn2c(SCC(=O)Nc3nc(-c4ccc(Cl)cc4)cs3)nc(C)c2C)cc1 | Satisfied

I'd appreciate it if you could say whether COC1=CC(O)(CC(N)=O)c2ccccc2C1=O (stereo not given) has TGI at least equal to 20 µM. Satisfied

I'd appreciate it if you could say whether CCCC/C=C/C1Cc2ccccc2CN1S(=O)(=O)c1ccc(C)cc1 (stereo not given) has TGI at least equal to 20 µM. Satisfied

I'd appreciate it if you could say whether CCC[CH2][Sn]([CH2]CCC)([O]C(=O)c1cc(F)cc(F)c1)[O]C(=O)c1cc(F)cc(F)c1 has TGI at least equal to 20 µM. Not satisfied

###

# Tested on: NCI-H23 lung
# procedure text: NCI tumour cell line growth inhibition, 48 h
Quick list: TGI per entry.
Respond with the bare value in µM.

Below, 4 compounds whose answers are already recorded.
1) COc1cc(C(=O)/C=C/c2cc(C(=O)c3cc(OC)c(OC)c(OC)c3)ccc2OC)ccc1N | 4.1
2) CC(OC(=O)NCn1cc(-c2ccccc2)nn1)c1ccccc1 (stereo not given) | 76.8
3) CC(C)NC(=O)CN1CCN(C2=CC(=O)c3c(O)ccc(O)c3C2=O)CC1 | 24.3
4) COc1ccc2nc3cccc([N+](=O)[O-])c3c(NCCO)c2c1 | 0.0624

Okay, now this compound:
Give NCI-H23 lung TGI for O=[N+]([O-])c1cccc2nc3ccccc3c(NCCc3cccc[n+]3[O-])c12 0.0661

###

# Tested on: NCI-H522 lung
# procedure text: NCI tumour cell line growth inhibition, 48 h
Quick list: GI50 per entry.

Below, 3 compounds whose answers are already recorded.
1. CC(C)CCOc1ccc(-c2n[nH]c(C(F)(F)F)c2-c2cncc(C#N)c2)c(O)c1 | 1.8 µM
2. CCOC(=O)c1sc2nc3sc(N=Nc4ccc(Cl)cc4)c(O)n3c(=S)c2c1C | 38.8 µM
3. NC(=NCCCOc1ccc(Cl)cc1)Nc1ccc(Cl)cc1 | 2.05 µM

Would you kindly share the measured GI50 for COc1ccc(Nn2c(SCC(=O)Nc3nc(-c4ccc(Cl)cc4)cs3)nc(C)c2C)cc1 ? 5.05 µM

Would you kindly share the measured GI50 for O=C(OCc1ccccc1)N1CCN(/[N+]([O-])=N/Oc2ccc([N+](=O)[O-])cc2[N+](=O)[O-])CC1 ? 3.66 µM

Would you kindly share the measured GI50 for COCC1CCCN1c1ccc(/C=C(/C#N)C(N)=S)cc1 (configuration not stated) ? 12.7 µM

###

# Test system: HCC-2998 colon
# procedure text: NCI tumour cell line growth inhibition, 48 h
readout type: GI50

1) Cc1nc2sccn2c(=O)c1CCN1CCC(=C(c2ccc(F)cc2)c2ccc(F)cc2)CC1 | 12.3 µM
2) CCN(CC)CCCNc1cccc2c(SCc3ccccc3)ccnc12 | 1.73 µM
3) CCN(CC)c1cc(/C=C/c2ccc(OC)c(OC)c2)nc2cc(F)c(F)cc12 | 70.6 µM
4) CCCCCCCCCCCCCCCCCC1=NCCN1CS(=O)(=O)O | 17 µM
5) O=[N+]([O-])c1ccc(-c2nc(-c3ccccc3)c(-c3ccccc3)n2-c2ccccc2)cc1 | 2.07 µM

Would you kindly share the measured GI50 for CCCCCC(O)C1C(=O)OC(C)C(O)/C=C/C=C/C=C/C=C\C=C(\C)C(O)CC(O)CC(O)CC(O)CC(O)CC(O)CC1O (stereo unspecified) ? > 100 µM

Would you kindly share the measured GI50 for COc1cc(/C=C/c2cc(/C=C/c3ccc(O)c(OC)c3)n(-c3c(C)cccc3C)c(=O)n2)ccc1O ? 2.28 µM

Would you kindly share the measured GI50 for CC(=O)Nc1ccc(Sc2ccc([N+](=O)[O-])o2)cc1 ? 1.9 µM

Would you kindly share the measured GI50 for Cc1cccc(Oc2nccc(-c3c(-c4ccc(F)cc4)ncn3C3CCNCC3)n2)c1C ? 4.22 µM

Would you kindly share the measured GI50 for NC(=NCCCOc1ccc(Cl)cc1)Nc1ccc(Cl)cc1 ? 1.5 µM

Would you kindly share the measured GI50 for O=C1C(Br)=CC2(C=C1Br)CCN=c1c2c(O)c2nc3ccccc3c3ccnc1c23 ? 9.78 µM

###

# Tested on: RXF-631 renal
# procedure text: NCI tumour cell line growth inhibition, 48 h
readout type: TGI

1) CSC(C1c2ccccc2N(C)C2=NC(=O)N(C)C(=O)C21Cl)S(=O)(=O)c1ccc(C)cc1 (stereo unspecified) | > 100 µM
2) Clc1ccc(SCCSCCCCCCCCCCSCCSc2ccc(Cl)cc2)cc1 | > 100 µM
3) CCn1cc(/C=C/C(C)c2cn(CC)c(=O)[nH]c2=O)c(=O)[nH]c1=O (stereo unspecified) | > 100 µM
4) COc1cc2c(c(C)c1O)[C@H]1COc3ccccc3[C@H]1O2 | 29.8 µM
5) O=C(CO)CC(=O)C(=O)Nc1nc([N+](=O)[O-])cs1 | > 100 µM

Would you kindly share the measured TGI for COc1ccc2oc3c4c2c1CCC4CCC3=O (stereo unspecified) ? > 100 µM

###

# System: COLO 205 colon
# procedure text: NCI tumour cell line growth inhibition, 48 h
Quick list: log10(TGI) per entry.
Note the log scale: values are log10 of TGI expressed in µM.

1) CC[C@H]1CN2CCc3cc(OC)c(OC)cc3[C@@H]2C[C@@H]1C[C@H]1NCCc2cc(O)c(OC)cc21 | -1.73
2) CC(=O)Nc1ccc(Sc2ccc([N+](=O)[O-])o2)cc1 | 0.26
3) COc1ccc(C(=O)c2ccc(OC)c(OC)c2OC)cc1 | 0.50
4) C/C(=N\NC(=O)c1ccncc1)c1ccc2ccccc2c1O | 1.06

Okay, now this compound:
Would you kindly share the measured log10(TGI) for CCCC/C=C/C1Cc2ccccc2CN1S(=O)(=O)c1ccc(C)cc1 (centres undefined) ? 1.34

###

# Tested on: SK-OV-3 ovarian
# procedure text: NCI tumour cell line growth inhibition, 48 h
Quick list: TGI per entry.

Below, 3 compounds whose answers are already recorded.
1) CC1(C)N=C(C(N)=O)c2ncn(-c3ccccc3)c2N1 | > 100 µM
2) CCN(CC)c1cc(/C=C/c2ccc(OC)c(OC)c2)nc2cc(F)c(F)cc12 | 4.54 µM
3) C=C/C=C(\NC(=O)C(Cl)(Cl)Cl)[Si](C)(C)C | > 100 µM

Give SK-OV-3 ovarian TGI for Cc1ccc(NC(=O)c2cccc([N+](=O)[O-])c2O)c([N+](=O)[O-])c1 57.8 µM

Give SK-OV-3 ovarian TGI for O=[N+]([O-])c1cccc2nc3ccccc3c(NCCc3cccc[n+]3[O-])c12 0.979 µM

###

# System: PC-3 prostate
# procedure text: NCI tumour cell line growth inhibition, 48 h
readout type: TGI

Below, 5 molecules whose answers are already recorded.
1. Cc1cc(C)nc(NS(=O)(=O)c2ccc(Nc3c4ccccc4nc4c(C(=O)NCCCN(CCO)CCO)cccc34)cc2)n1 | > 100 µM
2. CCN(CC)c1cc(/C=C/c2ccc(OC)c(OC)c2)nc2cc(F)c(F)cc12 | > 100 µM
3. CSc1nc(-c2cc3c(c(SC)n2)CCCCC3)cc2c1CCCCC2 | > 100 µM
4. CCNCC(=O)O[C@]1(CC)C(=O)OCc2c1cc1n(c2=O)Cc2cc3ccccc3nc2-1 | > 100 µM
5. C/C(=N\NC(=O)c1ccncc1)c1ccc2ccccc2c1O | 96.9 µM

Would you kindly share the measured TGI for O=C1Nc2cccc(Cl)c2/C1=C\c1c(Cl)nc2sccn12 ? > 100 µM

Would you kindly share the measured TGI for CC(=O)C(=[N+]=[N-])C(=O)OC(C)(C)C#N ? > 10 µM

Would you kindly share the measured TGI for CC(C)CCOc1ccc(-c2n[nH]c(C(F)(F)F)c2-c2cncc(C#N)c2)c(O)c1 ? > 100 µM

Would you kindly share the measured TGI for COc1ccc2nc3cccc([N+](=O)[O-])c3c(NCCO)c2c1 ? 0.0982 µM

Would you kindly share the measured TGI for COc1cc(/C=C/c2cc(/C=C/c3ccc(O)c(OC)c3)n(-c3c(C)cccc3C)c(=O)n2)ccc1O ? 6.52 µM

###

Quick list: TGI per entry.
# Test system: OVCAR-5 ovarian
# procedure text: NCI tumour cell line growth inhibition, 48 h

Below, 4 compounds whose answers are already recorded.
1) CN(C)c1ccc(/C=C(\C#N)C(N)=C(C#N)C#N)cc1 | > 100 µM
2) COc1ccc(-c2ccc(/C=N/n3c(COc4ccccc4Cl)nn(CN4CCN(C)CC4)c3=S)o2)c([N+](=O)[O-])c1 | 46.6 µM
3) O=C(OCc1ccccc1)N1CCN(/[N+]([O-])=N/Oc2ccc([N+](=O)[O-])cc2[N+](=O)[O-])CC1 | 67.6 µM
4) CC1(C23CC4CC(CC(C4)C2)C3)n2c(=O)n(-c3ccccc3)c(=O)n2C1(C)C12CC3CC(CC(C3)C1)C2 (stereo not given) | > 100 µM

Would you kindly share the measured TGI for O=C1OCC(c2cccs2)=C1Cl ? > 100 µM

Provenance of the data: PubChem BioAssay (NCI)
